biological target: Mesothelin (SwissProt reference Q13421-3) (Homo sapiens, UniProt Q13421 37-622); test: cell-based or functional assay
quantity.kind: IC50 (nM), HT29 meso+ cells, MTT proliferation assay
Express the result in nM but write the number alone.

Value lookup for IC50 (nM), HT29 meso+ cells, MTT proliferation assay; key = Example 366, conjugate of anti-mesothelin antibody MF-Ta (antibody, human IgG1, lambda, V domains shown, toxophore-linker on Cys sulfur, sites not given) VH: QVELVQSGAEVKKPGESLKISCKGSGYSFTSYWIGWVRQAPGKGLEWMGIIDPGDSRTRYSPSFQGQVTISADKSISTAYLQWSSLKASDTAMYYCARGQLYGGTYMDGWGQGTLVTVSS VL: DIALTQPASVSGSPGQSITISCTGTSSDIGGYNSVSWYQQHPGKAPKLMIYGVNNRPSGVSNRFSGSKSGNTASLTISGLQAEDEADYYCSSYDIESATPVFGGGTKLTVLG
1.3

Moving on to Example 135, conjugate of anti-mesothelin antibody MF-Ta (antibody, human IgG1, lambda, V domains shown, toxophore-linker on Cys sulfur, sites not given) VH: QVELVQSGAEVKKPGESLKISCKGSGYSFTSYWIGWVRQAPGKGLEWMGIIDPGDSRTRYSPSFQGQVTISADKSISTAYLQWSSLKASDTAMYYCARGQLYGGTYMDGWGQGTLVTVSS VL: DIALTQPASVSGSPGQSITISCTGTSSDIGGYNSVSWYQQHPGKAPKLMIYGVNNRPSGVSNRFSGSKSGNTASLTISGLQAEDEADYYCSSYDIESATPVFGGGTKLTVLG
0.25
